- System: TK-10
- Assay Summary: NCI tumour cell line growth inhibition, 48 h
The source made the active and inactive calls. No stated cut-off is given here; in the data, active = GI50 up to about 1.1 µM and inactive = higher.
Parameter Measured: GI50

Q) Please report the measured GI50 for Cc1ccc(/N=N/C(=N\c2ccc(Cl)cc2)c2ccc(N(CCC#N)CCC#N)cc2)cc1
A) 21.7 µM (inactive)

Q) Please report the measured GI50 for COc1ccc(/C=N/NC(=O)c2ccc(O)c(CN(C)C)c2)cc1
A) > 100 µM (inactive)

Q) Please report the measured GI50 for Cc1ccc(S(=O)(=O)NC(=O)NCCc2c[nH]cn2)cc1
A) > 100 µM (inactive)

Q) Please report the measured GI50 for CN1CCN(c2ccc3[nH]c(-c4ccc5[nH]c(-c6ccc(O)cc6)nc5c4)nc3c2)CC1
A) 705 µM (inactive)

Q) Please report the measured GI50 for C[P+](C)(C)c1ccccc1
A) > 100 µM (inactive)

Q) Please report the measured GI50 for O=[N+]([O-])c1cccc(-c2oc(/C=N/c3ccccc3)c([N+](=O)[O-])c2-c2cccc([N+](=O)[O-])c2)c1
A) > 100 µM (inactive)

Q) Please report the measured GI50 for C/C(CC(=O)Nc1cccc([N+](=O)[O-])c1)=N\NC(=O)C[n+]1ccccc1
A) > 100 µM (inactive)

Q) Please report the measured GI50 for Cc1ccc(C)n1-c1ccccc1C1SCCCS1
A) > 100 µM (inactive)

Q) Please report the measured GI50 for c1ccc2c(c1)CCCN1CCc3ccccc3C21 (stereo not given)
A) 61.4 µM (inactive)

Q) Please report the measured GI50 for O=C(/C=C\c1ccc([N+](=O)[O-])cc1)c1ccccc(=O)c1O
A) 2.49 µM (inactive)

----------
- Tested on: ACHN
- Assay Summary: NCI tumour cell line growth inhibition, 48 h
Calls of active or inactive are those of the source. Rule as the data show it: active = GI50 up to about 1.1 µM and inactive = higher.
Parameter Measured: GI50

Q) Please report the measured GI50 for COc1ccc(Br)c(C(=O)N2CCc3ccccc32)c1N
A) 49 µM (inactive)

Q) Please report the measured GI50 for CC(=O)NC(CCCCN(Cc1ccccc1)C(=O)N(CCCl)N=O)C(=O)NCc1ccccc1 (stereo not given)
A) 14.3 µM (inactive)

Q) Please report the measured GI50 for COC(=O)c1csc([C@@H](OC(=O)[C@H](C)[C@H](CCCC(C)(Cl)Cl)OC(=O)c2csc([C@H](O)CO)n2)C(C)C)n1
A) 13.1 µM (inactive)

Q) Please report the measured GI50 for C/C=C1\CC2C(=O)CCC2C2c3ccccc3OC12 (stereo not given)
A) > 100 µM (inactive)

Q) Please report the measured GI50 for NNC(=O)CCC(=O)Nc1ccc(Cl)cc1Cl
A) > 100 µM (inactive)

Q) Please report the measured GI50 for O=S(=O)(N=S(c1ccc(Cl)cc1)c1ccc(Cl)cc1)c1ccccc1
A) > 100 µM (inactive)

Q) Please report the measured GI50 for Cc1cc(C)c2c(n1)S(=O)(=O)N(CCCN1CCN(c3cccc(C(F)(F)F)c3)CC1)C(C(=O)c1ccc(Cl)cc1)=C2O
A) 3.48 µM (inactive)

Q) Please report the measured GI50 for O=[N+]([O-])c1cccc(/C=N\NS(=O)(=O)c2ccc(Cl)cc2)c1O
A) 98.6 µM (inactive)

Q) Please report the measured GI50 for CCOc1ccccc1NC(=O)CCC(=O)NN
A) > 100 µM (inactive)

Q) Please report the measured GI50 for Cc1ccc(C)n1-c1ccccc1C1SCCCS1
A) > 100 µM (inactive)

----------
- System: NCI-H23
- Assay Summary: NCI tumour cell line growth inhibition, 48 h
The source made the active and inactive calls. Cut-off read from the data, not from the text of the source: active = GI50 up to about 1.1 µM and inactive = higher.
Bench note: report the call from active, inactive

Q) Test call for this compound, please: O=CC1CCCc2ccccc21 (stereo not drawn)
A) inactive

Q) Test call for this compound, please: C/C=C1\CC2C(=O)CCC2C2c3ccccc3OC12 (stereo not drawn)
A) inactive

Q) Test call for this compound, please: O=C1C(Cl)C(c2cc3cc(Br)ccc3nc2Cl)N1c1c(Cl)cccc1Cl (stereo not drawn)
A) inactive

Q) Test call for this compound, please: CN(C)C1=NC2=S(SC(Nc3ccccc3)=N2)S1 (stereo not drawn)
A) inactive

Q) Test call for this compound, please: O=C(Nc1cc(Cl)ccc1Cl)c1cc2cccc(Br)c2oc1=O
A) inactive

Q) Test call for this compound, please: CCCCCCCCCCCCCCCCOCC(COP(=O)(O)OCC1OC(n2cc(CC)c(=O)[nH]c2=O)CC1O)OC(=O)CCCCCCCCCCCCCCC (stereo not drawn)
A) inactive

Q) Test call for this compound, please: COc1ccc(-c2cc(-c3cc4cc(Br)ccc4nc3Cl)c(C#N)c(N)n2)cc1
A) inactive

Q) Test call for this compound, please: Clc1cc(-c2ccccc2)nc(Nc2nc3ccccc3[nH]2)n1
A) inactive

Q) Test call for this compound, please: Cc1ccccc1-n1c(=O)c2ncn(CCCl)c2n(-c2ccccc2C)c1=S
A) inactive

Q) Test call for this compound, please: C[C@@H](c1ccccc1)N1CO[C@@]2(C#Cc3ccc4c(c3)OCO4)CCC[C@@H]12
A) inactive

Q) Test call for this compound, please: Cc1cc(Cl)ccc1NC(=O)C(=O)Cc1nc2ccc(C(=O)c3ccccc3)cc2nc1O
A) inactive

Q) Test call for this compound, please: Cc1ccc(/C=C2\CCC/C(=C\c3ccc(O)c(CN4CCCCC4)c3)C2=O)cc1
A) inactive

Q) Test call for this compound, please: CC[C@H]1C=CCC[C@@]2(C[C@@H]3CC[C@@H]4[C@H](C(=O)OCCCCCCCCCCCCCCCC(=O)N(CCCNC(C)=O)C[C@H](CCNC(C)=O)OC(C)=O)[C@]5(CCC[C@@H](C)O5)NC(=[N+]34)N2)O1
A) active

Q) Test call for this compound, please: CN(C)CCNC(=O)c1cccc(N(C)C(=O)c2ccccc2)c1[N+](=O)[O-]
A) inactive

Q) Test call for this compound, please: O=[N+]([O-])c1cccc(-c2oc(/C=N/c3ccccc3)c([N+](=O)[O-])c2-c2cccc([N+](=O)[O-])c2)c1
A) inactive

Q) Test call for this compound, please: C=CCSc1nn(CC=C)cc2ncnc1-2
A) inactive

Q) Test call for this compound, please: C/C(=N\N(C)C)c1sc(-n2nc(-c3ccccc3)cc2-c2ccccc2)nc1C
A) inactive

Q) Test call for this compound, please: C=C(Cl)COC(=O)Nc1cccc(Cl)c1
A) inactive

Q) Test call for this compound, please: C1CSCC2(COC2)CS1
A) inactive

Q) Test call for this compound, please: COc1cc(OC)c(C#N)c(OC)c1C
A) inactive

Q) Test call for this compound, please: O=c1[nH]cnc2c1ncn2[C@H]1CO[C@@H](CO)[C@@H]1O
A) inactive

Q) Test call for this compound, please: CC(C)(C)CNCCO
A) inactive

Q) Test call for this compound, please: CSc1ccc(-c2cc(-c3nc4ccccc4[nH]3)nc3[nH]c(-c4nc5ccccc5[nH]4)cc(=O)c23)cc1
A) inactive

Q) Test call for this compound, please: CCP(=O)(OC)C1=CCN(C(=O)OCC[Si](C)(C)C)CC1 (stereo not drawn)
A) inactive

Q) Test call for this compound, please: COc1cc(C2c3cc4c(cc3[C@@H](Nc3ccc(C#N)cc3)C3COC(=O)[C@H]23)OCO4)cc(OC)c1O (stereo partly drawn)
A) active

Q) Test call for this compound, please: CC(=O)Nc1ccc(/C=C/C(=O)c2sc(-c3cccnc3)nc2C)cc1
A) inactive

Q) Test call for this compound, please: O=C(CCN1CCOCC1)Nc1ccc2sc3ccccc3c(=O)c2n1
A) inactive

Q) Test call for this compound, please: O=C1Nc2ccccc2/C1=C1/Nc2ccccc2/C1=N\OCCNCC(O)C(O)C(O)C(O)CO (stereo not drawn)
A) inactive

Q) Test call for this compound, please: Oc1cccc(-c2ccc3c4c2O[C@H]2c5[nH]c6ccccc6c5C[C@@]5(O)[C@@H](C3)N(CC3CC3)CC[C@]425)c1
A) inactive

Q) Test call for this compound, please: N#Cc1c(C#N)c(SSc2c(C#N)c(C#N)c(N)n2-c2ccc(F)cc2)n(-c2ccc(F)cc2)c1N
A) inactive

Q) Test call for this compound, please: Cc1ccc2c(c1C)CC1(Cc3c(ccc4c3CCC4)C1=O)C2=O (stereo not drawn)
A) inactive

Q) Test call for this compound, please: CS/C(=N\c1ccccc1)N(c1ccccc1)c1nc(=[N+](C)C)ss1.[O-][Cl+3]([O-])([O-])[O-]
A) inactive

Q) Test call for this compound, please: CCOc1cc(NC(C)=O)ccc1C(=O)NNS(=O)(=O)c1ccc(NC(C)=O)cc1
A) inactive

Q) Test call for this compound, please: CC(C)(CC1(C)NC(=O)NC1=O)OCc1ccccc1 (stereo not drawn)
A) inactive

Q) Test call for this compound, please: CCN(CC)c1ccc(C2SCC(=O)N2c2ccc(NC(=O)c3ccc(N4C(=O)CSC4c4ccc(N(CC)CC)cc4)cc3)cc2)cc1 (stereo not drawn)
A) inactive

Q) Test call for this compound, please: O=c1ccc2cc(O)c(O)cc2o1 [ESCULETIN]
A) inactive

Q) Test call for this compound, please: COc1ccc(S(=O)(=O)N/N=C(\C)CN2C(=O)c3ccccc3C2=O)cc1
A) inactive

Q) Test call for this compound, please: CCC1(O)CC(OC2CC(N(C)C)C(OC3CC(O)C(OC4OC(C)C(=O)C=C4N)C(C)O3)C(C)O2)c2c(cc3c(c2O)C(=O)c2c(O)cccc2C3=O)C1C(=O)OC (stereo not drawn)
A) active
